Record form. Attribute: EC50. Fill in for each entry.
Target: hTLR8 (human Toll-like receptor 8) (Homo sapiens, UniProt Q9NR97)
Construct: host or cells: HEK-Blue hTLR8 (HEK293-derived reporter cells)
Sequence (Q9NR97 27-1041): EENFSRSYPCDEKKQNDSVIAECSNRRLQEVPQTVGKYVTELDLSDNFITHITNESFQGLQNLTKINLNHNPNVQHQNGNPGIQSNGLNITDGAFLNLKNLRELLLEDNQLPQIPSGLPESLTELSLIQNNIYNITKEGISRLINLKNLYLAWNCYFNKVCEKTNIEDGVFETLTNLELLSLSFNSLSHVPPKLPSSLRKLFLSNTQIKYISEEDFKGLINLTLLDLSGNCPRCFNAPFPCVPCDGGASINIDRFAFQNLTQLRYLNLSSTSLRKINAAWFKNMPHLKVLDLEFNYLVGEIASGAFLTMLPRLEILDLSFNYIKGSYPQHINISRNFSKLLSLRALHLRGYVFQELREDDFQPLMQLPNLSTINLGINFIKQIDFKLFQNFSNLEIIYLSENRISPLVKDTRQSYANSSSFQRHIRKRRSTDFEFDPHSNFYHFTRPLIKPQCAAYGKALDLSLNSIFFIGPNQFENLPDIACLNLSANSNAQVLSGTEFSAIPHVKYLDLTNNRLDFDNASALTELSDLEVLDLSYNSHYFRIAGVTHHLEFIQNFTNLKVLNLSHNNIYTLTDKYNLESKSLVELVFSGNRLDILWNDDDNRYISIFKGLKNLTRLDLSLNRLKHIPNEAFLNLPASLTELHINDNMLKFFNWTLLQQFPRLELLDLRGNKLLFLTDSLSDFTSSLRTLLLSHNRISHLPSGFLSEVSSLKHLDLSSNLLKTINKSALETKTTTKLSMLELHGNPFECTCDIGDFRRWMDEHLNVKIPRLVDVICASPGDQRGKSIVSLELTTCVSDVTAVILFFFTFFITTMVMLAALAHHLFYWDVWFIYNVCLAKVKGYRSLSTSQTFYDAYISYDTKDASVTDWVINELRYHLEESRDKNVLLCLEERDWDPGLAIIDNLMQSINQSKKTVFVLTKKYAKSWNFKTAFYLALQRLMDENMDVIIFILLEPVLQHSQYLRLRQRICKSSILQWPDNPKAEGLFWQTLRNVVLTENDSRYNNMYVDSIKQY
Experiment: HEK-Blue hTLR8 reporter assay (QUANTI-Blue, OD650)
Type: cell-based
Conditions: HEK-Blue hTLR8 cells, 24 h; class symbols; read-out: Reporter assay TLR8 EC50

For CCCN(OCc1ccc(N)cc1)C(=O)C1=Cc2ccc(-c3cnc4c(c3)C(=O)OC4)nc2N=C(N)C1 , what is its reported EC50?
≤ 10 nM

For CCCN(OCc1ccc(N)cc1)C(=O)C1=Cc2ccc(-c3cccc(S(=O)(=O)N4CCOCC4)c3)cc2N=C(N)C1 , what is its reported EC50?
≤ 10 nM

For CCCN(OCc1ccc(N)cc1)C(=O)C1=Cc2ccc(-c3cncc(S(=O)(=O)N4CCNCC4)c3)cc2N=C(N)C1 , what is its reported EC50?
≤ 10 nM

For CCCN(OCc1ccc(N)cc1)C(=O)C1=Cc2ccc(C(=O)Nc3ccc4c(c3)CNC4)cc2N=C(N)C1 , what is its reported EC50?
≤ 10 nM

For CCCN(OCc1ccc(N)cc1)C(=O)C1=Cc2ccc(C(=O)NC3CCCCC3)cc2N=C(N)C1 , what is its reported EC50?
≤ 10 nM

For CCCN(OCc1ccc(N)cc1)C(=O)C1=Cc2ccc(C(=O)N3CC(CO)C3)cc2N=C(N)C1 , what is its reported EC50?
10 to 100 nM

For CCCN(OCc1ccc(N)cc1)C(=O)C1=Cc2ccc(-c3cccc(S(=O)(=O)N4CCC(O)CC4)c3)cc2N=C(N)C1 , what is its reported EC50?
≤ 10 nM

For CCCN(OCc1ccc(N)cc1)C(=O)C1=Cc2ncc(-c3cncc(CO)c3)cc2N=C(N)C1 , what is its reported EC50?
≤ 10 nM

For CCCN(OCc1ccc(N)cc1)C(=O)C1=Cc2ccc(-c3cncc(C(F)(F)F)c3)cc2N=C(N)C1 , what is its reported EC50?
10 to 100 nM

For CCCN(OCc1ccc(N)cc1)C(=O)C1=Cc2ccc(C(=O)Nc3cccc(CN)c3)cc2N=C(N)C1 , what is its reported EC50?
≤ 10 nM

For CCCN(OCc1ccc(N)cc1)C(=O)C1=Cc2ccc(C(=O)N3CCN(c4ccccc4)CC3)cc2N=C(N)C1 , what is its reported EC50?
≤ 10 nM

For CCCN(OCc1ccc(N)cc1)C(=O)C1=Cc2ccc(C(=O)NC(C)(C)c3ccccc3)cc2N=C(N)C1 , what is its reported EC50?
≤ 10 nM
